- assayedTarget: recombinant human AMPK complex, containing α2β1γ2 (Homo sapiens, UniProt P54646+Q9Y478)
- Construct: hsAMPKα2-552-His, hsAMPKβ1-2-270 and hsAMPKγ-2-569 respectively; hsAMPKβ1-2-270; hsAMPKγ-2-569; His (C); made in house; host or cells: Spodoptera frugiperda Sf21 (baculovirus)
- Sequence (P54646 2-552): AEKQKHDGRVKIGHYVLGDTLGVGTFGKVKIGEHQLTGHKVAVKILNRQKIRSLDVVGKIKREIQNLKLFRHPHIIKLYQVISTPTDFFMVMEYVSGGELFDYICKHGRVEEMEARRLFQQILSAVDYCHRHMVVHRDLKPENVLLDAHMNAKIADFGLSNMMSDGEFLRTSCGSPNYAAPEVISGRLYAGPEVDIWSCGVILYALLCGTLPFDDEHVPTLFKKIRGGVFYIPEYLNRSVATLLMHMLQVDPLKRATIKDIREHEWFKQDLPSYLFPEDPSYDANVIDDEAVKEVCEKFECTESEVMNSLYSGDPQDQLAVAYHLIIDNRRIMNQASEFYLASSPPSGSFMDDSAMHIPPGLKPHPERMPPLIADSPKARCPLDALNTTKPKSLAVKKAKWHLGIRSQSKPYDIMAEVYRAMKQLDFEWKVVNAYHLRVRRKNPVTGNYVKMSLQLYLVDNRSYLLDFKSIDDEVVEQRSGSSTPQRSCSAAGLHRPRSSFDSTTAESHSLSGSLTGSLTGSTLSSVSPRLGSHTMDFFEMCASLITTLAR
- Sequence (Q9Y478 2-270): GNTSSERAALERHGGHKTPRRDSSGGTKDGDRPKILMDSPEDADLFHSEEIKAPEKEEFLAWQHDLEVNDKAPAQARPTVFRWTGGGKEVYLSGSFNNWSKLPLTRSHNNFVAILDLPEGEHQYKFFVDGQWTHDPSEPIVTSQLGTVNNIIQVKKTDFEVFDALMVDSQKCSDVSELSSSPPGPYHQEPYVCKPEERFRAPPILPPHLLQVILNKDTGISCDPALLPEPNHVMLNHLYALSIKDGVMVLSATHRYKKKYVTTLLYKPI
- Sequence (Q9UGJ0 2-569 partner limits assumed): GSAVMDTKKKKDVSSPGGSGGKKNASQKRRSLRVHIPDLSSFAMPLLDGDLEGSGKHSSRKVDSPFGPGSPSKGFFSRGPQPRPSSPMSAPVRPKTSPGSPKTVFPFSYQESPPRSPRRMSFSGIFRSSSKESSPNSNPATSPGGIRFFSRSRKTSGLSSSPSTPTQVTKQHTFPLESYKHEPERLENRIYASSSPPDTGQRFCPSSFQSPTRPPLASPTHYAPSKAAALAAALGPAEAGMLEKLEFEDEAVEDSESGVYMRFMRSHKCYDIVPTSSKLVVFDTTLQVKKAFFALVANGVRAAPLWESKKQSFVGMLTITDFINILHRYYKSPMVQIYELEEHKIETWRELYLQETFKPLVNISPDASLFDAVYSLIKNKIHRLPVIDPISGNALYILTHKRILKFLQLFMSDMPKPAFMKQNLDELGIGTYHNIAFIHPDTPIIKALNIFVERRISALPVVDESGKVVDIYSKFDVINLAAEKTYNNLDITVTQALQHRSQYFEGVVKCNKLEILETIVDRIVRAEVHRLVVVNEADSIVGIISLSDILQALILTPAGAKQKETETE
- assayExplanation: AMPK in vitro activation assay (HTRF)
- Format: biochemical
- conditions: potentiation of AMPK activity as percent over the basal signal (without compound)
- Protocol: The recombinant human AMPK complex, containing α2β1γ2 was obtained from baculovirus expression system and generated by cotransfection in Spodoptera frugiperda 21 (Sf21). […] A homogeneous time-resolved fluorescence (HTRF) assay was used (Li et al, Anal. Biochem. (2003) 321, 151-156) to identify compounds with stimulating activity for the recombinant human AMPK. […] The fluorescence signal was measured using an Envision multireader (Perkin Elmer). […]
Response key: class 1 means Emax >= 200%; class 0 means Emax < 200%.

>>> classassignment("COc1cc(C(O)=C2C(=O)Nc3cc(Cl)c(-c4ccc(N(C)C)cc4)cc32)on1")
"class 1"
>>> classassignment("O=C1Nc2cc(Cl)c(-c3ccc(N4CCOCC4)cc3)cc2C1=C(O)c1ccccc1")
"class 0"

Query: Textbook exercise: given the entry "COc1cc(C(O)=C2C(=O)Nc3cc(Cl)c(-c4ccc(OCc5cccnc5)cc4)cc32)on1" , state whether its Emax is greater than or equal to 200%.
Result: class 0

Query: I'd appreciate it if you could say whether "COc1cc(C(O)=C2C(=O)Nc3cc(Cl)c(-c4ccc(N5CCOCC5)c(F)c4)cc32)on1" has Emax at least equal to 200%.
Result: class 0

Query: I'd appreciate it if you could say whether "O=C1Nc2cc(Cl)c(-c3ccc(C4(CO)CC4)cc3)cc2C1=C(O)c1ccc(F)c(F)c1" has Emax at least equal to 200%.
Result: class 1

----------
- assayedTarget: recombinant human AMPK complex, containing α2β1γ2 (Homo sapiens, UniProt P54646+Q9Y478)
- Construct: hsAMPKα2-552-His, hsAMPKβ1-2-270 and hsAMPKγ-2-569 respectively; hsAMPKβ1-2-270; hsAMPKγ-2-569; His (C)
- assayExplanation: AMPK in vitro activation assay (HTRF)
- conditions: HTRF, recombinant human α2β1γ2 AMPK, 200 μM ATP, biotinylated ACC-CREBp peptide; repeat determinations on separate lines
pEC50: −log10 of the molar value.
Recorded pEC50 determines the group label, using bucket 1 = under 7, bucket 2 = from 7 up to 9, bucket 3 = 9 and over

>>> classassignment("O=C1Nc2cc(Cl)c(-c3ccc(N4CCOCC4)cc3)cc2C1=C(O)c1cccnc1")
"bucket 1"
>>> classassignment("Cc1cc(C(O)=C2C(=O)Nc3cc(Cl)c(-c4ccc(C5(CO)CC5)s4)cc32)on1")
"bucket 1"
>>> classassignment("Cc1ccc(C(O)=C2C(=O)Nc3cc(Cl)c(-c4ccc(C5(CO)CC5)cc4)cc32)s1")
"bucket 3"

Query: Assign a category based on measured pEC50 for "O=C1Nc2cc(Cl)c(-c3ccc(C4(CO)CC4)cc3)cc2C1=C(O)c1ccncc1F" and give only the class name.
Result: bucket 3

Query: Into which category would you place "COc1cccc(-c2ccc(-c3cc4c(cc3Cl)NC(=O)C4=C(O)c3cnc(C)s3)cc2)c1O" ?
Result: bucket 2

Query: Exercise: read the entry "N#Cc1cccc(C(O)=C2C(=O)Nc3cc(Cl)c(-c4ccc(N5CCOCC5)cc4)cc32)c1" and state which class it falls under.
Result: bucket 1
